Data credit: PubChem BioAssay (NCI)

tested on: A498 renal; experiment: NCI tumour cell line growth inhibition, 48 h
Where a SMILES comes first, the peptide text is derived from it. [ ]: non-standard residue; d: D form. The star is where a group is joined. ξ: configuration not given here. Propanoyl(3-(4-MeO-Ph)) = COc1ccc(CCC(=O)*)cc1; Thr(3ξ) = CC(O)[C@H](N)C(=O)O; dNMeL = CN[C@H](CC(C)C)C(=O)O; OBn = c1ccc(CO*)cc1; ξLac = CC(O)C(=O)O
So I've got a bunch of molecules here, and I need their TGI values.

Field: example entries. Status: answers known.
# molecule, target.or.system, observed.value
measured = [
    ("O=C1CCC2=C3C4CCCCC4C(=O)C4CCCC(OC2C1)C34 (stereo unspecified)", "A498 renal", "> 63.1 µM"),
    ("C#Cc1cccc(Nc2ncnc3ccc(-c4cnc(Cl)c(NS(C)(=O)=O)c4)cc23)c1", "A498 renal", "0.254 µM"),
    ("COc1cc(C2SCC(=O)N2c2ccc(Cl)cc2)cc(I)c1O (stereo unspecified)", "A498 renal", "> 23.2 µM"),
    ("O[C@H]1[C@H](O)[C@H](O)CN2CCC[C@@H](O)[C@H]12", "A498 renal", "> 100 µM"),
    ("CCOC(=O)C1(C(=O)OCC)CC(=O)[C@@]2(C1)OCC[C@H]1OC(=O)C[C@H]12", "A498 renal", "> 100 µM"),
]

Please give TGI, item by item, for the list that follows.
1. CCC1CCCCN1C(=S)N/N=C(\C)c1ccccn1 (stereo unspecified)
2. O=C1/C(=C/c2cccs2)NC(=S)N1CN1CCOCC1
3. CCOC(=O)c1cc(=O)oc2c1N(C)c1ncccc1N2
4. COc1ccc(CCC(=O)OC(C)[C@H](NC(=O)[C@@H](CC(C)C)N(C)C(=O)[C@@H]2CCCN2C(=O)C(C)O)C(=O)OCc2ccccc2)cc1 (stereo partly specified) (H-[ξLac]P[dNMeL][Thr(3ξ)](Propanoyl(3-(4-MeO-Ph)))-OBn)
5. CCCC#CC(O)(C(=O)OC1CCN(C)CC1)C1CCCCC1 (stereo unspecified)

Reply text:
1.93 µM
> 100 µM
> 100 µM
> 100 µM
> 100 µM

Please give TGI, item by item, for the list that follows.
1. Nn1c(SCC(=O)NCc2ccccc2)nc2ccccc2c1=O
2. c1ccc2c(c1)nnn2CNc1ccc(N2CCOCC2)cc1
3. N#CC(N=Nc1ccccc1)c1nc2ccccc2o1 (stereo unspecified)
4. O=C(O)CCSC(=O)Nc1cccc([N+](=O)[O-])c1
5. Cc1ccc(NC(=O)CC/C(CC(=O)c2ccc(Cl)cc2)=N\NC(=O)C(=O)NN)cc1C
6. CC(=O)O[C@H]1CCC2[C@@H]3CCC4Nc5c(cnn5-c5ccccc5)C[C@]4(C)C3CC[C@@]21C (stereo partly specified)

Reply text:
> 100 µM
> 100 µM
> 100 µM
> 100 µM
> 100 µM
> 100 µM

Please give TGI, item by item, for the list that follows.
1. CNC(=O)c1cncc(/C=C/c2c(C)cccc2C)c1
2. O=c1c(-c2ccccc2Cl)coc2cc(F)ccc12
3. CC(C)NC(=O)OCc1c(COC(=O)NC(C)C)c(-c2ccc[n+](COC(=O)C3CC3)c2)n2c1CCC2
4. O=C(O)c1cc(O)c2c(c1)Cc1cccc(O)c1C2=O
5. NC12CC3CC4C1CC1CC2C(C3)C4(N)C1

Reply text:
1: > 25 µM; 2: 47.2 µM; 3: 88.1 µM; 4: > 100 µM; 5: > 100 µM
